These measurements were taken from PubChem BioAssay (NCI).

- Tested on: SK-MEL-5 melanoma
- experimentalProtocol: NCI tumour cell line growth inhibition, 48 h
endpointLabel: TGI

Reference set, count: 8
# compound, TGI
records = [
    ("COC(=O)c1ccc(C2SC(C)C(=O)N2NC(=O)C(O)c2ccccc2)cc1 (stereo unspecified)", "> 100 µM"),
    ("CC(C)C(NCc1c2ccccc2[n+]([O-])c2ccccc12)C(=O)O (stereo unspecified)", "> 100 µM"),
    ("Cc1cccc(-n2cnc3cc(C(=O)N4CCCCC4)ccc32)c1", "53.1 µM"),
    ("COc1ccc(/C=C/C(=O)Nc2cc(/C=C\\c3cc(OC)c(OC)c(OC)c3)cc(OC)c2OC)cc1OC", "3.65 µM"),
    ("O=S(=O)(Nc1ccc2ccccc2c1)N1CCCCC1", "21 µM"),
    ("c1ccc(P2c3ccccc3Nc3ccccc32)cc1", "82.5 µM"),
    ("O=C1C=CC2(NN=C(c3ccccc3)N2c2ccccc2)c2cccc(O)c21 (stereo unspecified)", "0.706 µM"),
    ("COc1ccc(CNc2cnc3ccc(N)cc3n2)cc1OC", "> 100 µM"),
]

So what's the measured TGI for this one? CCSC1=CC(Cc2ccc(OC)cc2)N(C(=O)OC)C1 (stereo unspecified)
> 100 µM

Which measured TGI value corresponds to CC(C)(C)OC(=O)N(CCCN)CCCCN ?
> 100 µM

Can you share its TGI? I mean this compound: COc1cc2nccc(Oc3ccc(NC(=O)C4(C(=O)Nc5ccc(F)cc5)CC4)cc3)c2cc1OC(=O)c1ccc(N)cc1
> 100 µM
